biological target: human CCR5 receptor (hCCR5) (human), P51681; experiment: inhibition of gp120/sCD4 complex binding to CCR5-expressing Cf2Th cells by competing peptide
Sequence (P51681 whole entry): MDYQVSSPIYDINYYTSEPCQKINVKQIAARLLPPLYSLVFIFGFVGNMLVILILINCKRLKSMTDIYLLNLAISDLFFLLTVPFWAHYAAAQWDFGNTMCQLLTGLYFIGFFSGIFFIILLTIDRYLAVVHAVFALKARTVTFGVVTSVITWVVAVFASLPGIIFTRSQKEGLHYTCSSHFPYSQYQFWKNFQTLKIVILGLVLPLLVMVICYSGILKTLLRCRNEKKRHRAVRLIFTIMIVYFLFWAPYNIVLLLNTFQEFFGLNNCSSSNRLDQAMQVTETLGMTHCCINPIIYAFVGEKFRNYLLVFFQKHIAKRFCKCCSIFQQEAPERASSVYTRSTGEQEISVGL
pEC50: −log10 of the molar value.
Values of pEC50 greater than or equal to 10 map to MET; values below map to NOT MET.

Consider the following illustrative entries.
Q: Reported pEC50 at or above 10? SSEYR (modifications not checked)
Result: NOT MET

Q: Reported pEC50 at or above 10? YSSYR (modifications not checked)
Result: NOT MET

Q: Reported pEC50 at or above 10? TSNYS (modifications not checked)
Result: NOT MET

Now consider a different binder.
Q: Reported pEC50 at or above 10? NSSYR (modifications not checked)
Result: MET
